Assay: Urinary excretion study in rats after oral NS, SF or CNS (LC–MS/MS)
Format: in vivo
Settings: rat urine, oral NS 60 mg/kg, 2 h
recorded-endpoint: Excretion amount (µg)

{"compound": "CC(C)=CCC[C@](C)(O[C@@H]1O[C@H](CO[C@@H]2O[C@H](CO)[C@@H](O)[C@H](O)[C@H]2O)[C@@H](O)[C@H](O)[C@H]1O)[C@H]1CC[C@]2(C)[C@@H]1[C@H](O)C[C@@H]1[C@@]3(C)CC[C@H](O[C@@H]4O[C@H](CO)[C@@H](O)[C@H](O)[C@H]4O[C@@H]4O[C@H](CO)[C@@H](O)[C@H](O)[C@H]4O)C(C)(C)[C@@H]3CC[C@]12C [ginsenoside Rb1]", "unit-text": "µg", "meas-value": 0.075}
{"compound": "CC(C)=CCC[C@](C)(O[C@@H]1O[C@H](CO)[C@@H](O)[C@H](O)[C@H]1O)[C@H]1CC[C@]2(C)[C@@H]1[C@H](O)C[C@@H]1[C@@]3(C)CC[C@H](O)C(C)(C)[C@@H]3[C@@H](O[C@@H]3O[C@H](CO)[C@@H](O)[C@H](O)[C@H]3O)C[C@]12C [ginsenoside Rg1]", "unit-text": "µg", "meas-value": 4.985}
{"compound": "CC(C)=CCC[C@](C)(O[C@@H]1O[C@H](CO)[C@@H](O)[C@H](O)[C@H]1O)[C@H]1CC[C@]2(C)[C@@H]1[C@H](O)C[C@@H]1[C@@]3(C)CC[C@H](O)C(C)(C)[C@@H]3[C@@H](O[C@@H]3O[C@H](CO)[C@@H](O)[C@H](O)[C@H]3O[C@@H]3O[C@@H](C)[C@H](O)[C@@H](O)[C@H]3O)C[C@]12C [ginsenoside Re]", "unit-text": "µg", "meas-value": 0.304}
{"compound": "CC(C)=CCC[C@](C)(O[C@@H]1O[C@H](CO)[C@@H](O)[C@H](O)[C@H]1O)[C@H]1CC[C@]2(C)[C@@H]1[C@H](O)C[C@@H]1[C@@]3(C)CC[C@H](O[C@@H]4O[C@H](CO)[C@@H](O)[C@H](O)[C@H]4O[C@@H]4O[C@H](CO)[C@@H](O)[C@H](O)[C@H]4O)C(C)(C)[C@@H]3CC[C@]12C [ginsenoside Rd]", "unit-text": "µg", "meas-value": 0.022}
